experiment: PSAC antagonists in infected red cells, primary screen, cell-based, P. falciparum Indochina, OD700, 1 h (AID 1154); conditions: P. falciparum Indochina infected RBC osmotic lysis, called active from +8 up or from −8 down
Active and inactive are the calls of the source.
Give one outcome, nothing more. List: active, inactive

Known results for compounds:
[[record]]
compound = "C=CC[C@@]1(C(=O)O)N=C(c2ccc(OCCCO)cc2)O[C@@H]1c1ccccc1CN=[N+]=[N-]"
classification = "active"

[[record]]
compound = "C=CCC(OC(C)=O)[C@@H]1[C@@H](N(Cc2cccc3ccccc23)C(=O)c2cccc3ccccc23)c2cc(OCCCO)ccc2N1C(=O)Cc1ccc2ccccc2c1 (stereo not given in full)"
classification = "inactive"

[[record]]
compound = "Cc1c(-c2ccc(-c3ccc(Cl)c(Cl)c3)o2)nc(-c2ccccc2)c2c1CO[Si]2(C(C)C)C(C)C"
classification = "inactive"

[[record]]
compound = "N[C@@H](Cc1ccccc1)Cn1cc(C2(O)CCCCC2)nn1"
classification = "inactive"

[[record]]
compound = "CC(C)(C)N1CC=CC23O[C@@H]4/C=C\\CCCOC(=O)C4[C@H]2C(=O)N(CCCCCCO)[C@@H]3C1=O (stereo not given in full)"
classification = "inactive"


Prompt: Look up the recorded call for NC(=O)NCC#Cc1ccc2c(c1)[C@]1(C(=O)N2)[C@H](C(=O)N2CCCCCCC2)[C@H]2C(=O)O[C@H](c3ccccc3)[C@H](c3ccccc3)N2[C@@H]1c1ccc(O)cc1 in this test.
Completion: inactive

Prompt: Please answer likewise for C=CCC(OC(C)=O)[C@@H]1[C@@H](N(Cc2cc3ccccc3o2)C(=O)c2cccc3ccccc23)c2cc(OCCCO)ccc2N1C(=O)c1ccc2ccccc2c1 (stereo not given in full)
Completion: inactive

Prompt: Please answer likewise for COC(=O)[C@@H]1N=C(c2ccc(OCCCO)cc2)O[C@@H]1c1ccccc1CN=[N+]=[N-]
Completion: active

Prompt: Please answer likewise for O=C(NCC(F)(F)F)[C@@H]1c2ccccc2C(=O)N(CC23CC4CC(CC(C4)C2)C3)[C@H]1c1ccc(CO)cc1
Completion: inactive

* * *

system: Chordin-like protein 2 (CHRDL2); experiment: CHRDL2 small-molecule binders, primary screen, biochemical, small-molecule microarray, 635 nm fluorescence (AID 1126); conditions: small-molecule microarray binding, fluorescence 635 nm; higher = more signal;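 note: printed compound slides probed with Chrdl2 protein at 4 µg/mL for 1 h at 4 C; score merges 667 nm emission intensity with signal to noise over three replicate slides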
I would appreciate it if you labelled entries 1.0 when composite z-score is -0.04 or higher, otherwise 0.0.

Known results for compounds:
[[record]]
compound = "CCCCCN1CC=CC23O[C@@H]4C=CCOC(=O)[C@@H]4[C@H]2C(=O)N(CCCCCO)[C@@H]3C1=O (some centres undefined)"
classification = 0.0

[[record]]
compound = "COc1ccc([Si](C)(C)[C@H]2[C@H](CCO)O[C@@]3(C(=O)N(Cc4ccccc4)c4ccc(N(C=O)c5ccccc5)cc43)[C@@H]2C)cc1"
classification = 1.0

[[record]]
compound = "COC(=O)[C@@]1(CCS(=O)(=O)c2ccccc2)N=C(c2ccc(OCCCO)cc2)O[C@H]1c1ccccc1N=[N+]=[N-]"
classification = 1.0

[[record]]
compound = "Cc1ccc(F)cc1S(=O)(=O)N[C@@H]1CCN(Cc2ccc3[nH]ccc3c2)C1"
classification = 1.0

[[record]]
compound = "C=CCOC(=O)[C@H]1[C@@H]2C(=O)O[C@@H](c3ccccc3)[C@@H](c3ccccc3)N2[C@@H](c2ccc(OCCOC(=O)[C@@H]3C[C@@H]4C(=O)N[C@@H](Cc5ccccc5)C(=O)N4[C@@H]3c3ccc(O)cc3)cc2)[C@]12C(=O)Nc1ccccc12"
classification = 1.0


Prompt: Identify whether the reported composite z-score of the following compound is -0.04 or greater: COC(=O)C(CC#Cc1ccc2c(c1)[C@]1(C(=O)N2)[C@H](c2ccc(O)cc2)N2[C@H](c3ccccc3)[C@H](c3ccccc3)OC(=O)[C@H]2[C@@H]1C(=O)N1CCc2cc(OC)c(OC)cc2C1)C(=O)OC
Completion: 1.0

Prompt: Please answer likewise for C=C(CCCC)C(=O)CC[C@H](OC(=O)c1cccnc1)c1ccc(CO)o1
Completion: 1.0

Prompt: Please answer likewise for CCOC(=O)C1=CC[C@@H](c2ccccc2Cl)N(S(=O)(=O)c2ccc(C)cc2)[C@H]1c1cccc(OC)c1
Completion: 1.0

Prompt: Please answer likewise for COCCOC(=O)N1C(=O)[C@@]2(c3cc(C#Cc4ccc(OC)cc4)ccc31)[C@H](C(=O)N1CCCCCCC1)[C@H]1C(=O)O[C@H](c3ccccc3)[C@H](c3ccccc3)N1[C@@H]2c1ccccc1OCCO
Completion: 1.0

* * *

Listed next: entries and their corresponding composite z-score.
molecular target: Neurogenic locus notch homolog protein 3 (Homo sapiens) (UniProt Q9UM47); assay: NOTCH3 binders on small-molecule microarray, primary screen, biochemical, 635/667 nm fluorescence (AID 1096); settings: NOTCH3 binding, 635 nm fluorescence, higher = more signal
Sequence (Q9UM47 whole entry, looked up): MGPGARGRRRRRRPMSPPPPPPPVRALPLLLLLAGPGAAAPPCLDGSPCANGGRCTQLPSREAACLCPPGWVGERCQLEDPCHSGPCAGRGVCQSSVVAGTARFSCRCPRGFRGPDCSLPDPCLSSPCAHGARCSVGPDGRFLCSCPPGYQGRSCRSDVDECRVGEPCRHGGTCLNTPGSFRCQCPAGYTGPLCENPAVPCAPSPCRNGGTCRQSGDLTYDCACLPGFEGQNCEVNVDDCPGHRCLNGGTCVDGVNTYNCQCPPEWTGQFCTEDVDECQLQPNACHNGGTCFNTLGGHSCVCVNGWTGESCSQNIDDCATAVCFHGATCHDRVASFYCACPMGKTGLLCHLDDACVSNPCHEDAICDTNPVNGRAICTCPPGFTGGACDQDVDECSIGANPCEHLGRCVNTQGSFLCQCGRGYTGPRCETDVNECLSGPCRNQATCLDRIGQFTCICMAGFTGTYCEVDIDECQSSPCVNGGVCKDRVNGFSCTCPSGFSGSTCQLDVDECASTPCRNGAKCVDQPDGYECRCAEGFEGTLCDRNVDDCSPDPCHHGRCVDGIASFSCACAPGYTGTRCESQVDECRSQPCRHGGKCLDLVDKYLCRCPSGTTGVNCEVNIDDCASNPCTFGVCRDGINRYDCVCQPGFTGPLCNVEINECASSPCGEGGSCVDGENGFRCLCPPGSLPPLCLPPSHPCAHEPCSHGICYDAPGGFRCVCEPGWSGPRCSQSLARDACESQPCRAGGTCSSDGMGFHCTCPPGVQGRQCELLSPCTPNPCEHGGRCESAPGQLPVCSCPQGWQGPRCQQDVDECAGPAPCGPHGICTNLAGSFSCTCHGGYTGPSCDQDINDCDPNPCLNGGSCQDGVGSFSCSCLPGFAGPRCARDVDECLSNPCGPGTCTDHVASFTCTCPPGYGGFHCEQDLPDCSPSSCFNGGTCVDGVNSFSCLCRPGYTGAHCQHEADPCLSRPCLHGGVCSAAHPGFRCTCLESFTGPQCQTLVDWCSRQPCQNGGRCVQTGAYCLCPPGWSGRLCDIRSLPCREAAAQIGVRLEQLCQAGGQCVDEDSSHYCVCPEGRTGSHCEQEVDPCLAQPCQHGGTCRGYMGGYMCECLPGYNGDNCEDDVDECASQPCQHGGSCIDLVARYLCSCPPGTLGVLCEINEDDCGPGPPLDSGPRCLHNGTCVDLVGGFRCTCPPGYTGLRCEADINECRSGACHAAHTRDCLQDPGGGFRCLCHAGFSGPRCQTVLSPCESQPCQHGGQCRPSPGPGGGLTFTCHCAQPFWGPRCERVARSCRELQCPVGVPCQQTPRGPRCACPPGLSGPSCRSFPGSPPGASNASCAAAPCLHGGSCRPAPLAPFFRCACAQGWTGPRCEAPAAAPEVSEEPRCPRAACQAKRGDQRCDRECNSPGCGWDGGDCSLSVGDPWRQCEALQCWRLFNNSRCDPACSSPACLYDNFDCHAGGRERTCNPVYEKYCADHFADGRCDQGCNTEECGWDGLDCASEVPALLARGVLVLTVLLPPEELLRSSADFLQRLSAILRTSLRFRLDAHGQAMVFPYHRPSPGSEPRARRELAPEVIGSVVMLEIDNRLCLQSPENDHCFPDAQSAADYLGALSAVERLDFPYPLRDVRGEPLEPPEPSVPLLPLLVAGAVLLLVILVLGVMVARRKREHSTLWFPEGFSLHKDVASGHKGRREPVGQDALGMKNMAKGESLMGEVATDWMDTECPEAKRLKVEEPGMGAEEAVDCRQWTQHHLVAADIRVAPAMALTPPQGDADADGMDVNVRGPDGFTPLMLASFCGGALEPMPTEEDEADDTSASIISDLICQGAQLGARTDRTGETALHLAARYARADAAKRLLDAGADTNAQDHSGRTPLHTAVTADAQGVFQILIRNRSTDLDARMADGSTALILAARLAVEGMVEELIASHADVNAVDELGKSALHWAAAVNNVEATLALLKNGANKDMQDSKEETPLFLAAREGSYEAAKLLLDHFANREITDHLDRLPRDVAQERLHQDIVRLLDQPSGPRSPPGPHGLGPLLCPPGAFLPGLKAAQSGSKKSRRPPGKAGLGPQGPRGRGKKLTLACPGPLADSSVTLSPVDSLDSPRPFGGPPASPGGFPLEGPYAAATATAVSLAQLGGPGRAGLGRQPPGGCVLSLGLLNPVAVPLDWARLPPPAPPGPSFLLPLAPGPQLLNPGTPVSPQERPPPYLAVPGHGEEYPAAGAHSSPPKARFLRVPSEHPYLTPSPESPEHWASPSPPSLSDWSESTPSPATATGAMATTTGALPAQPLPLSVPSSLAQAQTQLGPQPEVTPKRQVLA

# annotated cases, reported composite z-score shown
[[record]]
compound = "COC(=O)C1(CC(C)C)C=C2C(=C(C(C)C)C(=O)C2C)CN1 (stereo not given)"
result = -0.877

[[record]]
compound = "O=C1OCCC/C=C\\[C@H]2OC34C=CCN(Cc5ccccc5)C(=O)[C@H]3N(CCCCCO)C(=O)[C@@H]4C12 (stereo not given in full)"
result = -0.0471

[[record]]
compound = "CCCCN1CC=CC23O[C@@H]4C=CCOC(=O)[C@@H]4[C@H]2C(=O)N(C(CO)C(C)C)[C@@H]3C1=O (stereo not given in full)"
result = -0.743

[[record]]
compound = "Cc1ccccc1C(O)C1C=CC2C(=O)N(c3ccccc3)C(=O)C2N1Nc1ccccc1F (stereo not given)"
result = 1.12

[[record]]
compound = "COCC1=C([C@H](O)CCc2ccccc2)[C@H](CO)n2c(=O)n(-c3ccccc3)c(=O)n2C1"
result = -0.907

[[record]]
compound = "COCCOC(=O)N1C(=O)[C@@]2(c3cc(C#CC4(O)CCCCCC4)ccc31)[C@H](c1ccc(OCCO)cc1)N1[C@H](c3ccccc3)[C@H](c3ccccc3)OC(=O)[C@H]1[C@@H]2C(=O)N1CCCCCCC1"
result = 1.11

[[record]]
compound = "CC[C@H](C)C(=O)O[C@H]1CC[C@]2(C)C3=C(CCC2C1(C)C)[C@]1(C)CC[C@H]([C@H](C)CCCC(C)C)[C@@]1(C)CC3 (stereo not given in full)"
result = 0.854

[[record]]
compound = "C=CCOC(=O)[C@H]1[C@@H]2C(=O)O[C@@H](c3ccccc3)[C@@H](c3ccccc3)N2[C@@H](c2ccc(OCCOC(=O)[C@@H]3C[C@@H]4C(=O)N[C@@H](CC(C)C)C(=O)N4[C@@H]3c3ccc(O)cc3)cc2)[C@]12C(=O)Nc1ccc(I)cc12"
result = 0.752

[[record]]
compound = "CCCCC(=C=CC[C@H](O)c1ccc(OCCO)cc1)C[C@H](O)c1ccccn1"
result = 0.419

[[record]]
compound = "CC(C)CNC(=O)[C@@H]1c2ccccc2C(=O)N(C2Cc3ccccc3C2)[C@H]1c1ccc(CO)cc1"
result = -0.145


Prompt: What does the record list as composite z-score for CCOC(=O)C1=CC[C@@H](c2ccccc2)N(S(=O)(=O)C[Si](C)(C)C)[C@H]1c1ccccc1 ?
Completion: 1.09

Prompt: Please answer likewise for CCCC=C(CCC)[C@@H](NS(=O)(=O)c1ccc(Cl)cc1)c1ccccc1
Completion: -0.682

Prompt: Please answer likewise for COc1ccc(NC(=O)O[C@H]2[C@H](OC(=O)Nc3ccc4c(c3)OCO4)[C@H](OC(=O)Nc3ccc4c(c3)OCO4)[C@@H](OC)O[C@@H]2CO)cc1
Completion: 0.569

Prompt: Please answer likewise for COCCOC(=O)N1C(=O)[C@@]2(c3cc(C#CCCO)ccc31)[C@H](c1ccc(O)cc1)N1[C@H](c3ccccc3)[C@H](c3ccccc3)OC(=O)[C@H]1[C@@H]2C(=O)N1CCc2cc(OC)c(OC)cc2C1
Completion: 1.06

Prompt: Please answer likewise for COC(=O)[C@@]1(Cc2ccccc2CN=[N+]=[N-])COC(c2ccc(OCCCO)cc2)=N1
Completion: -1.25

Prompt: Please answer likewise for COC(=O)c1c(CC[C@@H](CO)NC(=O)N[C@@H](Cc2ccccc2)Cn2cc(-c3cncn3C)nn2)oc(C(C)=O)c1C(=O)OC
Completion: 0.912

* * *

target: Torsin-1A-interacting protein 2 (Homo sapiens) (UniProt Q8NFQ8); experiment: LULL1 binders on small-molecule microarray, primary screen, cell lysate, human LULL1 lysate, 635/667 nm fluorescence (AID 1092); conditions: hLULL1 lysate binding, 635 nm fluorescence, higher = more signal;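 note: probe is lysate of COS7 cells overexpressing human LULL1; score merges per-feature 667 nm fluorescence with signal-to-noise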
Sequence (Q8NFQ8 whole entry, looked up): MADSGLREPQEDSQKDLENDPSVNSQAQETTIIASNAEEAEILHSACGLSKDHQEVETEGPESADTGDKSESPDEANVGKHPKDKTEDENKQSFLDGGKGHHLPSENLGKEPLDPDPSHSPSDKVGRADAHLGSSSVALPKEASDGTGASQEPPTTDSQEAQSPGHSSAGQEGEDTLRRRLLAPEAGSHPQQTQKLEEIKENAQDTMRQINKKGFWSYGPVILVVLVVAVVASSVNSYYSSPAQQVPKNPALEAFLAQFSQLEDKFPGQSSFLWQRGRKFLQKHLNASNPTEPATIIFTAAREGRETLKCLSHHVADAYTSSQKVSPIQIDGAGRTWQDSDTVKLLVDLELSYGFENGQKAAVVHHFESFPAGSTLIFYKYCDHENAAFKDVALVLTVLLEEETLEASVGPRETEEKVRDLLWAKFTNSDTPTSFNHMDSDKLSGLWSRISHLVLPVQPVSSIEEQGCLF
Listed next: entries and their corresponding composite z-score.
Lab note: jot down the number only; don't add units.

# annotated cases, reported composite z-score shown
[[record]]
compound = "O=C1c2ccccc2[C@@]2(Cc3ccccc3N(Cc3ccccc3)C2=O)[C@H](c2ccc(CO)cc2)N1Cc1ccccc1"
experimental_readout = "composite z-score"
quantitative_readout = 0.118

[[record]]
compound = "O=C1C2C=CC(C(O)C(c3ccccc3)c3ccccc3)N(Nc3ccccc3)C2C(=O)N1c1ccccc1 (centres undefined)"
experimental_readout = "composite z-score"
quantitative_readout = 3.23

[[record]]
compound = "C=C(/C(=C/C[C@@H](OC(C)=O)c1ccccc1OCCO)c1cc(C(=O)OC)ccc1OC)C(C)C"
experimental_readout = "composite z-score"
quantitative_readout = 0.231


Prompt: What does the record list as composite z-score for Cc1ccc(S[C@]2(C(=O)NCCN3CCOCC3)CC(=O)N(C3CCCCC3)[C@@H]2c2ccc(CO)cc2I)cc1 ?
Completion: 3.23
